# System: human polymorphonuclear neutrophil leukocytes
# assayMethodText: Inhibition of A 23187-stimulated oxidative burst (chemiluminescence) in PMNL
# Assay type: cell-based
# testSettings: minimal inhibiting concentration with significant inhibition of all 3 chemiluminescence parameters; calcium ionophor A 23187 stimulus
quantityName: MIC (μM) (A 23187) (µM)

• C=CCC1C=C(C)CC(C)CC(OC)C2OC(O)(C(=O)C(=O)N3CCCCC3C(=O)OC(C(C)=CC3CCC(OC(C)=O)C(OC)C3)C(C)C(O)CC1=O)C(C)CC2OC (centres unmarked) = 0.05

I. C=CC[C@@H]1/C=C(\C)C[C@H](C)C[C@H](OC)[C@H]2O[C@@](O)(C(=O)C(=O)N3CCCC[C@H]3C(=O)O[C@H](/C(C)=C/[C@@H]3CC[C@@H](O)[C@H](OC)C3)[C@H](C)[C@@H](O)CC1=O)[C@H](C)C[C@@H]2OC
II. C=CCC1C=C(C)CC(C)CC(OC)C2OC(O)(C(=O)C(=O)N3CCCCC3C(=O)OC(C(C)=CC3CCC(O)C(OC)C3)C(C)C=CC1=O)C(C)CC2OC (centres unmarked)
III. CCCC1C=C(C)CC(C)CC(OC)C2OC(O)(C(=O)C(=O)N3CCCCC3C(=O)OC(C(C)=CC3CCC(O)C(OC)C3)C(C)C(O)CC1=O)C(C)CC2OC (centres unmarked)
IV. C=CCC1C=C(C)CC(C)CC(OC)C2OC(O)(C(=O)C(=O)N3CCCCC3C(=O)OC(C(C)=CC3CCC(OC(C)=O)C(OC)C3)C(C)C(OC(C)=O)CC1=O)C(C)CC2OC (centres unmarked)
In: # rank by MIC (μM) (A 23187), ascending (min first) Give your ranking as a list of the labels in the requested order.
Out: III, I, IV, II
